- System: Root-knot nematodes Meloidogyne spp. juveniles (J2)
- procedure_summary: whole plant or invertebrate
- Format: in vivo
- applied_conditions: 500 ppm; 70-100 J2 juveniles; 22±2° C., 70±5% RH; dead/inactive counted at 24, 48, 72 and 96 hours (time of rating not stated)
reported_property: % Mortality Rating

Consider the worked cases shown below.
N=C(N)NCCCC(N=CC=Cc1nc2ccccc2o1)C(=O)O (stereo not shown) [Example 65]: B (50-69)
CC(C=NC(CCCNC(=N)N)C(=O)O)=Cc1cccs1 (stereo not shown) [Example 46]: B (50-69)
CCOc1ccc(C=CC=NC(CCCNC(=N)N)C(=O)O)cc1 (stereo not shown) [Example 33]: C (0 to 49)
N=C(N)NCCCC(N=CC=Cc1nc2ccccc2[nH]1)C(=O)O (stereo not shown) [Example 55]: C (0 to 49)
N=C(N)NCCCC(N=CC=Cc1cnc[nH]1)C(=O)O (stereo not shown) [Example 51]: B (50-69)

Ask: Complete the entry with % Mortality Rating for CCC(C=NC(CCCNC(=N)N)C(=O)O)=Cc1cscn1 (stereo not shown) [Example 48]
Reply: B (50-69)

----------
- Tested on: Root-knot nematodes Meloidogyne spp. juveniles (J2)
- procedure_summary: whole plant or invertebrate
- Type: in vivo
- applied_conditions: Meloidogyne, 70-100 J2 juveniles, 22±2° C., 70±5% RH, dead/inactive counted at 24, 48, 72 and 96 hours (time of rating not stated)
- Description: The compound to be tested (4 mg) was dissolved in 40 μl of DMSO to make 100,000 PPM concentration stock solution. […] The nematode suspension (250 μl) having 70-100 juveniles (J2) of Root-knot nematodes Meloidogyne spp. pipetted out to each cell of 24 well bioassay plate. Sterile water (1 ml) was pipetted out in fresh 2.5 ml Eppendorf micro-centrifuge tubes. The desired concentration (500 ppm) of the compound was prepared by adding stock solution in 2.5 ml Eppendorf micro-centrifuge tubes. […]
Overview of recorded mortality at 500 ppm for various compounds

These solved cases illustrate the format of a correct answer.
COc1cc(/C=C/C=N/[C@@H](CCCNC(=N)N)C(=O)O)ccc1O: 70 to 100%
N=C(N)NCCC[C@H](/N=C/C=C/c1ccc(Cl)cc1O)C(=O)O: 50 to 69%
COc1ccc(O)c(/C=C/C=N/[C@@H](CCCNC(=N)N)C(=O)O)c1: 50 to 69%

Ask: Provide only the value of recorded mortality at 500 ppm for "N=C(N)NCCC[C@H](/N=C/C=C/c1nc2ccccc2s1)C(=O)O"
Reply: 70 to 100%

----------
- System: Root-knot nematodes Meloidogyne spp. juveniles (J2)
- procedure_summary: whole plant or invertebrate
- Format: in vivo
- applied_conditions: Meloidogyne, 70-100 J2 juveniles, 22±2° C., 70±5% RH, dead/inactive counted at 24, 48, 72 and 96 hours (time of rating not stated)
reported_property: mortality at 500 ppm

N=C(N)NCCC[C@H](/N=C/C=C/c1ccccc1)C(=O)O: 70 to 100%
N=C(N)NCCC[C@H](/N=C/C=C/c1c(O)cccc1F)C(=O)O: 50 to 69%
CC(=O)Oc1ccc(/C=C/C=N/[C@@H](CCCNC(=N)N)C(=O)O)cc1: 70 to 100%

Let us examine a further case.
Ask: Tell me its mortality at 500 ppm on Root-knot nematodes Meloidogyne spp. juveniles (J2): "CC(/C=N/[C@@H](CCCNC(=N)N)C(=O)O)=C\c1ccccc1"
Reply: 70 to 100%
